- EXPERIMENTAL SYSTEM: huAChE (Homo sapiens)
- Sequence (P22303 32-617 isoform P22303-2 limits assumed): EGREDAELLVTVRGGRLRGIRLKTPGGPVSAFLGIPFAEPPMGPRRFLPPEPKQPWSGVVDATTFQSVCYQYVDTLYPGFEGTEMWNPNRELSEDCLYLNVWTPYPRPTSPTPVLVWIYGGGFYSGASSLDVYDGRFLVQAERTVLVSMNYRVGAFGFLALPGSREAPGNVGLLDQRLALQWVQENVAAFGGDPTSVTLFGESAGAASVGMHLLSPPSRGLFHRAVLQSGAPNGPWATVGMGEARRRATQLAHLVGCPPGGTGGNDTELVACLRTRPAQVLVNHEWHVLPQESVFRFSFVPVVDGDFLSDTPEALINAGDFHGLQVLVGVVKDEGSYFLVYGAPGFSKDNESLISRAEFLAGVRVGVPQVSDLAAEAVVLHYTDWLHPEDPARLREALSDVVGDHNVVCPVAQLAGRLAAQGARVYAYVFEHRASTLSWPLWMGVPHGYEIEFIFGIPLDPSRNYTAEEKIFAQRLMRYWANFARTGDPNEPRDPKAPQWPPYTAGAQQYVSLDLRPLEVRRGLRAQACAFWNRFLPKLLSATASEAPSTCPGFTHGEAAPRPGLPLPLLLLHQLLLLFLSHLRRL
PROPERTY: pKi
Answers are plain numbers, as −log10 of the molar value.

Consider the molecule CCN(CCCCCOc1cc(O)c2c(c1)OC(c1ccc(O)cc1)CC2=O)Cc1ccccc1 (stereo not shown) and give its recorded pKi.
6.13

---

Answer each item with its documented SI.
- EXPERIMENTAL SYSTEM: ratAChE (Rattus norvegicus)
- Construct: AChE from 5% rat cortex homogenate or human erythrocytes (Sigma Co.); from tissue; host or cells: 5% rat cortex homogenate
- Sequence (P37136 32-614): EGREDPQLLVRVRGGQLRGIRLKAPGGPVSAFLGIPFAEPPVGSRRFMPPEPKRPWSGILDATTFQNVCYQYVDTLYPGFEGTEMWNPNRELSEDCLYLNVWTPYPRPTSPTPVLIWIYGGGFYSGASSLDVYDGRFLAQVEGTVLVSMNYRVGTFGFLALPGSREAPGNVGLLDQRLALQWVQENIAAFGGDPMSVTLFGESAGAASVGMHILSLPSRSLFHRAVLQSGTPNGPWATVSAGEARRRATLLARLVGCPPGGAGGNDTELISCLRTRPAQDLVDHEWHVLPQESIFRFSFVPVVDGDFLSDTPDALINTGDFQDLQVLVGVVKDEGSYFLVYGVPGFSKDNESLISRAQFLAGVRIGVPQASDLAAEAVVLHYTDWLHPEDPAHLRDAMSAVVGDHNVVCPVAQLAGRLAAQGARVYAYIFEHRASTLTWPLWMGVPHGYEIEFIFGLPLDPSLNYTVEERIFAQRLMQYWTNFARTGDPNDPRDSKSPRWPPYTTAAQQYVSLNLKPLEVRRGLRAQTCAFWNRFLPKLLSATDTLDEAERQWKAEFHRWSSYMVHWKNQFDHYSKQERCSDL
- TEST METHOD NOTES: biochemical
- MEASUREMENT CONDITIONS: Selectivity Index = IC50 (BuChE)/IC50 (AChE), rat enzymes

>  <MOLECULE>
CCN(CCCCOc1ccc(-c2cc(=O)c3c(O)cc(OCCCCN(CC)Cc4ccccc4)cc3o2)cc1)Cc1ccccc1 [Compound 10h]

>  <PROPERTY>
SI

>  <REPORTED RESULT>
14.0

$$$$

# batch: return SI for each of the 3 molecules below
1. O=C1CC(c2ccc(O)cc2)Oc2cc(OCCCCN3CCN(Cc4ccccc4)CC3)cc(O)c21 (stereo not shown)
2. O=c1cc(-c2ccc(OCCCN3CCC(c4ccccc4)CC3)cc2)oc2cc(OCCCN3CCC(c4ccccc4)CC3)cc(O)c12 [Compound 10d]
3. CCN(CCCCCCOc1ccc(-c2cc(=O)c3c(O)cc(OCCCCCCN(CC)Cc4ccccc4)cc3o2)cc1)Cc1ccccc1 [Compound 10r]

1. 1.4
2. 2.4
3. 8.3

---

- EXPERIMENTAL SYSTEM: ratBuChE (Rattus norvegicus)
- Construct: BuChE from rat serum or human serum (Sigma Co.); from tissue; host or cells: rat serum
- Sequence (Q9JKC1 24-597): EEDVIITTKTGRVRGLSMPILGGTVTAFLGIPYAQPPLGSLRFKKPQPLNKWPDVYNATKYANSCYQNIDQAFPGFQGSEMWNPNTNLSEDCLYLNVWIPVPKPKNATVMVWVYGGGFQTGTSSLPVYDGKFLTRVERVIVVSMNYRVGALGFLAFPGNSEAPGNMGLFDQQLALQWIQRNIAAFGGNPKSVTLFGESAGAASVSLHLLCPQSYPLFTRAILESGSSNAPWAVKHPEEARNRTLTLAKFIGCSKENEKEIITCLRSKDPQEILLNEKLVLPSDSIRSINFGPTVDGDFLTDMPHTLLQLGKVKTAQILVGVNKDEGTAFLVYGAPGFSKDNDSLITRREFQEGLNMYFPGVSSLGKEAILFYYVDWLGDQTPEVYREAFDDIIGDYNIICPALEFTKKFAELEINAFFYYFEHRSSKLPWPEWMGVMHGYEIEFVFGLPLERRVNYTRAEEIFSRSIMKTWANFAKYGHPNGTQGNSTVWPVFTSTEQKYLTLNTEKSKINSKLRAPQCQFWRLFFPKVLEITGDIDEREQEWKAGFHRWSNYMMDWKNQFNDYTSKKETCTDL
- TEST METHOD NOTES: ratBuChE inhibition, modified Ellman's method
- Type: biochemical
Answer each item with its documented IC50.
One number for each entry, in µM.

Known results for compounds:
>  <COMPOUND>
O=C1CC(c2ccc(O)cc2)Oc2cc(OCCCCN3CCCCC3)cc(O)c21 (centres unmarked) [Compound 5a]

>  <UNITS SYMBOL>
µM

>  <REPORTED RESULT>
20.9

$$$$
>  <COMPOUND>
O=c1cc(-c2ccc(OCCCCCN3CCC(c4ccccc4)CC3)cc2)oc2cc(OCCCCCN3CCC(c4ccccc4)CC3)cc(O)c12 [Compound 10n]

>  <UNITS SYMBOL>
µM

>  <REPORTED RESULT>
17.9

$$$$
>  <COMPOUND>
O=c1cc(-c2ccc(OCCCCCCN3CCc4ccccc4C3)cc2)oc2cc(OCCCCCCN3CCc4ccccc4C3)cc(O)c12 [Compound 10q]

>  <UNITS SYMBOL>
µM

>  <REPORTED RESULT>
12.2

$$$$
>  <COMPOUND>
O=C1CC(c2ccc(OCCCN3CCC(c4ccccc4)CC3)cc2)Oc2cc(OCCCN3CCC(c4ccccc4)CC3)cc(O)c21 (centres unmarked) [Compound 7d]

>  <UNITS SYMBOL>
µM

>  <REPORTED RESULT>
20.3

$$$$
>  <COMPOUND>
O=c1cc(-c2ccc(OCCCN3CCC(c4ccccc4)CC3)cc2)oc2cc(OCCCN3CCC(c4ccccc4)CC3)cc(O)c12 [Compound 10d]

>  <UNITS SYMBOL>
µM

>  <REPORTED RESULT>
15.1

$$$$
>  <COMPOUND>
O=c1cc(-c2ccc(OCCCN3CCc4ccccc4C3)cc2)oc2cc(OCCCN3CCc4ccccc4C3)cc(O)c12 [Compound 10a]

>  <UNITS SYMBOL>
µM

>  <REPORTED RESULT>
16.8

$$$$
>  <COMPOUND>
O=c1cc(-c2ccc(OCCCCN3CCN(Cc4ccccc4)CC3)cc2)oc2cc(OCCCCN3CCN(Cc4ccccc4)CC3)cc(O)c12 [Compound 10i]

>  <UNITS SYMBOL>
µM

>  <REPORTED RESULT>
10.3

$$$$
>  <COMPOUND>
CCN(CCCCOc1ccc(C2CC(=O)c3c(O)cc(OCCCCN(CC)Cc4ccccc4OC)cc3O2)cc1)Cc1ccccc1OC (centres unmarked) [Compound 7h]

>  <UNITS SYMBOL>
µM

>  <REPORTED RESULT>
16.9

$$$$
>  <COMPOUND>
O=C1CC(c2ccc(O)cc2)Oc2cc(OCCCCN3CCc4ccccc4C3)cc(O)c21 (centres unmarked) [Compound 5b]

>  <UNITS SYMBOL>
µM

>  <REPORTED RESULT>
17.4

$$$$
>  <COMPOUND>
O=c1cc(-c2ccc(OCCCCN3CCC(Cc4ccccc4)CC3)cc2)oc2cc(OCCCCN3CCC(Cc4ccccc4)CC3)cc(O)c12 [Compound 10j]

>  <UNITS SYMBOL>
µM

>  <REPORTED RESULT>
15.7

$$$$

# batch: return IC50 for each of the 7 compounds below
1. CC1CC(C)CN(CCCCCOc2ccc(-c3cc(=O)c4c(O)cc(OCCCCCN5CC(C)CC(C)C5)cc4o3)cc2)C1 (centres unmarked) [Compound 10p]
2. CCN(CCCCCCOc1ccc(-c2cc(=O)c3c(O)cc(OCCCCCCN(CC)Cc4ccccc4)cc3o2)cc1)Cc1ccccc1 [Compound 10r]
3. O=c1cc(-c2ccc(OCCCCCCN3CCC(c4ccccc4)CC3)cc2)oc2cc(OCCCCCCN3CCC(c4ccccc4)CC3)cc(O)c12 [Compound 10t]
4. CCN(CCCCCOc1ccc(-c2cc(=O)c3c(O)cc(OCCCCCN(CC)Cc4ccccc4)cc3o2)cc1)Cc1ccccc1 [Compound 10k]
5. O=C1CC(c2ccc(OCCCCN3CCc4ccccc4C3)cc2)Oc2cc(OCCCCN3CCc4ccccc4C3)cc(O)c21 (centres unmarked) [Compound 7f]
6. CCN(CCCCCOc1cc(O)c2c(c1)OC(c1ccc(O)cc1)CC2=O)Cc1ccccc1 (centres unmarked) [Compound 5f]
7. CCN(CCCOc1ccc(C2CC(=O)c3c(O)cc(OCCCN(CC)Cc4ccccc4)cc3O2)cc1)Cc1ccccc1 (centres unmarked) [Compound 7b]

1. 13.8
2. 14.1
3. 19.3
4. 13.3
5. 20.7
6. 16.9
7. 18.7
